# Tested on: UACC-257
# Protocol details: NCI screen, growth of human tumor cells: Melanoma UACC-257
# Format: cell-based
# Run parameters: UACC-257, 10^−4 molar
Each entry below carries its recorded % Growth.
Quantity kind: % Growth (%)

[[record]]
compound = "O=C1C(Cl)=C(C2S(=O)(=O)OCCOS2(=O)=O)C(=O)c2ccccc21"
target_or_system = "UACC-257"
numeric_value = "−74"

[[record]]
compound = "CC(=O)C1(CC2=C(C)C(=O)c3ccccc3C2=O)S(=O)(=O)OCCOS1(=O)=O"
target_or_system = "UACC-257"
numeric_value = "−83"

[[record]]
compound = "CC1=C(CC2S(=O)(=O)OCCOS2(=O)=O)C(=O)c2ccccc2C1=O"
target_or_system = "UACC-257"
numeric_value = "−100"

[[record]]
compound = "CC1=C(CC2(S(=O)(=O)C(F)(F)F)S(=O)(=O)OCCOS2(=O)=O)C(=O)c2ccccc2C1=O"
target_or_system = "UACC-257"
numeric_value = "−64"

[[record]]
compound = "CC1(C)OCC(COC(=O)C(=O)C2(Cc3ccc4c(c3)C(=O)c3ccccc3C4=O)S(=O)(=O)OCCOS2(=O)=O)O1 (stereo not drawn)"
target_or_system = "UACC-257"
numeric_value = "−76"

[[record]]
compound = "CC=CC(=O)C1(CC2=C(C)C(=O)c3ccccc3C2=O)S(=O)(=O)OCCOS1(=O)=O"
target_or_system = "UACC-257"
numeric_value = "−87"


====

# Tested on: SK-MEL-28
# Protocol details: NCI screen, growth of human tumor cells: Melanoma SK-MEL-28
# Assay type: cell-based
# Run parameters: SK-MEL-28, 10^−4 molar
Each entry below carries its recorded % Growth.
Quantity kind: % Growth (%)

[[record]]
query_smiles = "CC=CC(=O)C1(CC2=C(C)C(=O)c3ccccc3C2=O)S(=O)(=O)OCCOS1(=O)=O"
quantity_kind = "% Growth"
numeric_value = "−69"

[[record]]
query_smiles = "Cc1ccc2ccccc2c1CC1S(=O)(=O)OCCOS1(=O)=O"
quantity_kind = "% Growth"
numeric_value = "−78"

[[record]]
query_smiles = "CC1=C(CC2S(=O)(=O)OCCOS2(=O)=O)C(=O)c2ccccc2C1=O"
quantity_kind = "% Growth"
numeric_value = "−83"

[[record]]
query_smiles = "CC1=C(CC2(C(=O)C(F)(F)C(F)(F)C(F)(F)F)S(=O)(=O)OCCOS2(=O)=O)C(=O)c2ccccc2C1=O"
quantity_kind = "% Growth"
numeric_value = "−85"

[[record]]
query_smiles = "CC(=O)C1(CC2=C(C)C(=O)c3ccccc3C2=O)S(=O)(=O)OCCOS1(=O)=O"
quantity_kind = "% Growth"
numeric_value = "−100"

[[record]]
query_smiles = "CC1=C(CC2(S(=O)(=O)C(F)(F)F)S(=O)(=O)OCCOS2(=O)=O)C(=O)c2ccccc2C1=O"
quantity_kind = "% Growth"
numeric_value = "−85"


====

# Test system: UACC-62
# Protocol details: NCI screen, growth of human tumor cells: Melanoma UACC-62
# Assay type: cell-based
# Run parameters: UACC-62 (Melanoma), 10^−4 molar
Each entry below carries its recorded percent of growth of human tumor cells.
Quantity kind: percent of growth of human tumor cells (%)

[[record]]
compound = "CCOCC1(COCC)S(=O)(=O)OCCOS1(=O)=O [NSC 698120]"
quantity_kind = "percent of growth of human tumor cells"
numeric_value = "−36"

[[record]]
compound = "O=S1(=O)OCCOS(=O)(=O)C1c1cccc2cccnc12 [NSC 698122, ethylene 8-quinolylmethanedisulfonate]"
quantity_kind = "percent of growth of human tumor cells"
numeric_value = "−46"

[[record]]
compound = "CCOCC1(CC2=C(C)C(=O)c3ccccc3C2=O)S(=O)(=O)OCCOS1(=O)=O [NSC 698124]"
quantity_kind = "percent of growth of human tumor cells"
numeric_value = "−32"

[[record]]
compound = "CC=CC(=O)C1(CC2=C(C)C(=O)c3ccccc3C2=O)S(=O)(=O)OCCOS1(=O)=O [NSC 731265]"
quantity_kind = "percent of growth of human tumor cells"
numeric_value = "−13"


====

Each entry below carries its recorded percent of growth of human tumor cells.
# Test system: OVCAR-4
# Protocol details: NCI screen, growth of human tumor cells: Ovarian Cancer OVCAR-4
# Type: cell-based
# Run parameters: OVCAR-4 (Ovarian Cancer), 10^−4 molar
Quantity kind: percent of growth of human tumor cells (%)

[[record]]
compound = "CC1=C(CC2(S(=O)(=O)C(F)(F)F)S(=O)(=O)OCCOS2(=O)=O)C(=O)c2ccccc2C1=O"
quantity_kind = "percent of growth of human tumor cells"
numeric_value = "−23"

[[record]]
compound = "O=S1(=O)OCCOS(=O)(=O)C1C1c2ccccc2-c2ccccc21 [NSC 686562, ethylene 9-fluorenylmethanedisulfonate]"
quantity_kind = "percent of growth of human tumor cells"
numeric_value = "−39"

[[record]]
compound = "O=C1C(Cl)=C(C2S(=O)(=O)OCCOS2(=O)=O)C(=O)c2ccccc21"
quantity_kind = "percent of growth of human tumor cells"
numeric_value = 11

[[record]]
compound = "CCOCC1(CC2=C(C)C(=O)c3ccccc3C2=O)S(=O)(=O)OCCOS1(=O)=O"
quantity_kind = "percent of growth of human tumor cells"
numeric_value = 14

[[record]]
compound = "O=S1(=O)OCCOS(=O)(=O)C1(I)I [NSC 648308, ethylene diiodomethanedisulfonate]"
quantity_kind = "percent of growth of human tumor cells"
numeric_value = "−39"

[[record]]
compound = "CC=CC(=O)C1(C2=C(Cl)C(=O)c3ccccc3C2=O)S(=O)(=O)OCCOS1(=O)=O"
quantity_kind = "percent of growth of human tumor cells"
numeric_value = 19

[[record]]
compound = "O=S1(=O)OCCOS(=O)(=O)C1c1cccc2cccnc12 [NSC 698122, ethylene 8-quinolylmethanedisulfonate]"
quantity_kind = "percent of growth of human tumor cells"
numeric_value = 30


====

# Test system: M14
# Protocol details: NCI screen, growth of human tumor cells: Melanoma M14
# Type: cell-based
# Run parameters: M14 (Melanoma), 10^−4 molar
Each entry below carries its recorded percent of growth of human tumor cells.
Quantity kind: percent of growth of human tumor cells (%)

[[record]]
compound = "CC1(C)OCC(COC(=O)C(=O)C2(C3=C(Cl)C(=O)c4ccccc4C3=O)S(=O)(=O)OCCOS2(=O)=O)O1 (stereo not drawn) [NSC 737278]"
target_or_system = "M14"
numeric_value = "−4"

[[record]]
compound = "CC1=C(CC2(C(=O)C(F)(F)C(F)(F)C(F)(F)F)S(=O)(=O)OCCOS2(=O)=O)C(=O)c2ccccc2C1=O [NSC 720683]"
target_or_system = "M14"
numeric_value = "−56"

[[record]]
compound = "O=C(c1ccccc1S(=O)(=O)O)C1S(=O)(=O)OCCOS1(=O)=O [NSC 693880]"
target_or_system = "M14"
numeric_value = "−4"

[[record]]
compound = "O=S1(=O)OCCOS(=O)(=O)C1Cc1nc2ccccc2[nH]1 [NSC 679042]"
target_or_system = "M14"
numeric_value = 23

[[record]]
compound = "O=S1(=O)OCCOS(=O)(=O)C1C1c2ccccc2-c2ccccc21 [NSC 686562, ethylene 9-fluorenylmethanedisulfonate]"
target_or_system = "M14"
numeric_value = 23

[[record]]
compound = "O=C1C(Cl)=C(C2S(=O)(=O)OCCOS2(=O)=O)C(=O)c2ccccc21 [NSC 731260]"
target_or_system = "M14"
numeric_value = "−58"


====

# Test system: MOLT-4
# Protocol details: NCI screen, growth of human tumor cells: Leukemia MOLT-4
# Format: cell-based
# Run parameters: MOLT-4 (Leukemia), 10^−4 molar
Each entry below carries its recorded percent of growth of human tumor cells.
Quantity kind: percent of growth of human tumor cells

[[record]]
compound = "O=S1(=O)CS(=O)(=O)OCCO1 [NSC 348948, ethylene methanedisulfonate]"
result = "5%"

[[record]]
compound = "O=S1(=O)OCCOS(=O)(=O)C1Cc1nc2ccccc2[nH]1"
result = "−3%"

[[record]]
compound = "CC=CC(=O)C1(CC2=C(C)C(=O)c3ccccc3C2=O)S(=O)(=O)OCCOS1(=O)=O"
result = "2%"

[[record]]
compound = "N#CCCC1(CCC#N)S(=O)(=O)OCCOS1(=O)=O"
result = "6%"

[[record]]
compound = "O=S1(=O)OCCOS(=O)(=O)C1c1nc(Cl)c(Cl)nc1Cl"
result = "24%"

[[record]]
compound = "CC1=C(CC2(C(=O)C(=O)OCC3COC(C)(C)O3)S(=O)(=O)OCCOS2(=O)=O)C(=O)c2ccccc2C1=O (centres unmarked)"
result = "−12%"

[[record]]
compound = "O=S1(=O)OCCOS(=O)(=O)C1=NNc1c(O)cc(S(=O)(=O)O)c2ccccc12"
result = "23%"

[[record]]
compound = "O=S1(=O)OCCOS(=O)(=O)C1(I)I [NSC 648308, ethylene diiodomethanedisulfonate]"
result = "−22%"

[[record]]
compound = "O=S1(=O)OCCOS(=O)(=O)C1C1c2ccccc2-c2ccccc21 [NSC 686562, ethylene 9-fluorenylmethanedisulfonate]"
result = "−32%"

[[record]]
compound = "CC1=C(CC2(S(=O)(=O)C(F)(F)F)S(=O)(=O)OCCOS2(=O)=O)C(=O)c2ccccc2C1=O"
result = "−11%"

[[record]]
compound = "CC1(C)OCC(COC(=O)C(=O)C2(Cc3ccc4c(c3)C(=O)c3ccccc3C4=O)S(=O)(=O)OCCOS2(=O)=O)O1 (centres unmarked)"
result = "−26%"

